We begin with a simple list: items and their reported pKi.
Protein target, amino acids: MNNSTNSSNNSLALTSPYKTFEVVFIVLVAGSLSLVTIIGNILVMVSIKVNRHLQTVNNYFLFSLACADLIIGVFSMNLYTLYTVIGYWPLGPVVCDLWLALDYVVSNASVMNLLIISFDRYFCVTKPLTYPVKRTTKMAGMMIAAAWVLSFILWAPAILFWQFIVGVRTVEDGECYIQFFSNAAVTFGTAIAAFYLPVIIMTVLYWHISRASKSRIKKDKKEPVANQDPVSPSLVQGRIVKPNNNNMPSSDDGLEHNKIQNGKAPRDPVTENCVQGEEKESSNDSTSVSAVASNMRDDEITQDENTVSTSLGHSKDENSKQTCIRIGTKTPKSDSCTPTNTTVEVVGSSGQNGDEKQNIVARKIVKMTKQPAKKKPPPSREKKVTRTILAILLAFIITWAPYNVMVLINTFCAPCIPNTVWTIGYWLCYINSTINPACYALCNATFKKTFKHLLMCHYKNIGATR
pKi: −log10 of the molar value.

{"chem smiles": "Cc1nccn1CC#CCN1OCCC1=O", "pKi": 7.14}
{"chem smiles": "Cc1n(CC#CCN2OCCC2=O)cc[n+]1C", "pKi": 6.56}
